- Tested On: EGFRvIII, full length, expressed by transfected cells (NR6 M, H1477, 300.19/EGFRvIII) (human, UniProt P00533 298-1210)
- Experiment Notes: cell-based or functional assay
Recorded Endpoint: FACS Geometric mean, With glutathione 37° C. (geometric mean)
Unit geometric mean implied. Number only.

Worked examples, 2 binders total:
Binder	Measurement
SC-EGFRvIII-XG1-250 (antibody, V domains shown, also called SC250; sc250) VH: EGQLLESGGGWVQPGESLRLSCAASGFTFSSYAMSWVRQAPGKGLEWVSAISGSGGSTNYADSVKGRFTISRDNSKNTLYLQVNSLRVEDTAVYYCAGSSGWSEYWGQGTLVTVSS VL: DIQMTQSPSSLSASVGDSVTITCRTSQGIRKNLGWYQQKPGKAPKRLIYAASSLQSGVPSRFSGSGSGTEFTLTISRLQPEDFATYYCLQHHSYPLTFGGGTRVEIR	8.07
SC-EGFRvIII-XG1-211 (antibody, V domains shown, also called SC211; sc211) VH: QVQLVESGGGVVQPGRSLRLSCVASGFTLSSYGMHWVRQAPGKGLEWVAVTSYDGSKKDYADSAKGRFTISRDNSKNTLYLQMNSLRAEDTAVYYCVSEGYCSSSSCYKYYYYGMDVWGQGTTVTVSS VL: DIVMTQSPLSLPVTPGEPASISCRSSQSLLYRNGNNYLDWYLQRPGQSPQLLIYLGSNRASGVPDRFSGSGSGTDFTLKISRVEAEDVGVYYCMQALQTPRTFGQGTKVEIK	8.23

Then this binder:
Recorded FACS Geometric mean, With glutathione 37° C. of SC-EGFRvIII-XG2-150 (antibody, human IgG1, V domains shown, XenoMax-derived from an XMG2 mouse; also called sc150; 182D5) VH: QVQLQQSGPGLVKPSQTLSLTCAISGDSVSSYSSAWNWIRQSPSRGLEWLGRAYHRSRWYYEYAVSVKSRINITPDTSKNQFSLQLNSVTPEDTAVYYCARGSRFDYWGQGTLVTVSS VL: DIVMTQTPLSSPVTLGQPASISCRSSQSLVHRDGNTYLSWLQQRPGQPPRLLIYKISNRFSGVPDRFSGSGAGTDFTLKISRVEAEDVGIYFCMHTTQFPWTFGQGTRVEIK , please.
7.78

All values here come from patent US20050059087A1.
